Below, each of the molecules is paired with its reported parasite growth, % of control (lower = inhibition) value.
- Assay Procedure: qHTS profiling of the MIPE4 collection as inhibitors of Plasmodium falciparum (DD2) proliferation (Rep 2) (AID 743346)
- Measurement Setup: P. falciparum Dd2 in erythrocytes, SYBR Green DNA, 72 h; at 28.5 µM unless noted
- Method: Plasmodium falciparum is a virulent malarial parasite that kills 1-2 million people worldwide each year. […] Because mature erythrocytes lack DNA, only Plasmodium-derived DNA is detected. The SYBR Green viability assay was adapted from a method described previously (Plouffe et al., 2008). […] The following morning, fluorescence intensity at 485(14) nm excitation and 535(25) nm emission wavelengths was measured on an EnVision (Perkin Elmer) plate reader. […]
Recorded Metric: parasite growth, % of control (lower = inhibition) (%)

1. CCOC(=O)C1=C(C)NC(C)=C(C(=O)OCC)C1c1ccccc1C=CC(=O)OC(C)(C)C; 19.9
2. C[C@@H]1CCC2[C@@H](C)[C@@H](O)O[C@@H]3O[C@@]4(C)CC[C@@H]1[C@@]23OO4 (some centres undefined); 10.6
3. CC(C)N=c1cc2n(-c3ccc(Cl)cc3)c3ccccc3nc-2cc1Nc1ccc(Cl)cc1; 166
4. C=C1C(=CC=C2CCC[C@@]3(C)[C@@H]2CC[C@H]3[C@H](C)CCCC(C)C)C[C@@H](O)C[C@@H]1O; 29.8

###

- Tested on: C33A
- Assay Procedure: Primary qHTS to identify gynecologic anti-cancer compounds using libraries of approved drugs and bioactive compounds (AID 1345084); further: on the % scale 0 is the no-effect control and ±100 the full control effect; nearly all actives have a fitted effect of over 55% in size
- Measurement Setup: Gynecologic cancer cell panel viability, ATPlite luminescence, 48 h; series mostly up to 57.5 µM
Results filed as inconclusive are left out. Calls of active or inactive are those of the source. Calls follow the shape of the dose curve; as a rule, active = well fitted cell-killing curve with a large enough effect; inconclusive = small, poorly fitted or top-dose-only effect, or effect the other way; inactive = flat fitted curve, though single readings scatter.
Recorded Metric: activity change, negative = cytotoxicity

1. C=C1CCC2C(C)(C(=O)O)CC(O)CC2(C)C1CC/C(C)=C/C(=O)O (stereo unspecified); inactive
2. CC(CCC1(O)OC2CC3C4CCC5CC(O[C@@H]6O[C@H](CO)[C@@H](O)[C@H](O)[C@H]6O[C@@H]6OC[C@@H](O)[C@H](O)[C@H]6O)C(O)CC5(C)C4CCC3(C)C2C1C)CO[C@@H]1O[C@H](CO)[C@@H](O)[C@H](O)[C@H]1O (stereo partly specified); 4.8% [at 11.6 µM] (inactive)
3. C=C[C@H]1[C@H](O[C@@H]2O[C@H](CO[C@@H]3OC[C@](O)(CO)[C@H]3O)[C@@H](O)[C@H](O)[C@H]2O)OC=C2C(=O)OCC[C@H]21; inactive
4. C[C@@H]1O[C@@H](O[C@H]2[C@H](OC(=O)[C@]34CCC(C)(C)C[C@H]3C3=CCC5[C@@]6(C)C[C@H](O)[C@H](O[C@@H]7O[C@H](CO)[C@@H](O[C@@H]8O[C@H](CO)[C@@H](O)[C@H](O)[C@H]8O)[C@H](O)[C@H]7O)[C@@](C)(CO)C6[C@H](O)C[C@@]5(C)[C@]3(C)C[C@H]4O)OC[C@H](O)[C@@H]2O)[C@H](O)[C@H](O)[C@H]1O[C@@H]1OC[C@@H](O)[C@H](O[C@@H]2OC[C@](O)(CO)[C@H]2O)[C@H]1O (stereo partly specified); 12.9% [at 6.55 µM] (inactive)
5. CCCC1=CC2=C(CO1)C(=O)C(C)(OC(=O)c1c(C)cc(OC)cc1O)C(O)C2 (stereo unspecified); inactive
6. COC(=O)C1=COC(OC2OC(CO)C(O)C(O)C2O)C2C1CC(OC(=O)C(O)CC(=O)O)C2C (stereo unspecified); inactive

###

- Assay Procedure: qHTS Assay for Identifying Gametocytocidal Compounds (AID 743244);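 further: on the % scale 0 is the no-effect control and ±100 the full control effect; actives lower the fluorescent signal which means gametocytes are killed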
- Measurement Setup: P. falciparum 3D7 stage III-V gametocytes, alamarBlue, 72 h; stronger effect = lower value
Inconclusive results are not listed. Calls of active or inactive are those of the source. Calls follow the shape of the dose curve; as a rule, active = well fitted curve in the direction sought with a large enough effect; inconclusive = small, poorly fitted or top-dose-only effect, or another doubt; inactive = no such curve, though single readings can be large or run the other way. Where a SMILES comes first, the peptide text is derived from it. Bridges are numbered along the chain shown (N, C = ends). [ ]: non-standard residue; d: D form. The star is where a group is joined. Dab(CH2SO3H) = N[C@@H](CCNCS(=O)(=O)O)C(=O)O; X3 = CC[C@@H](C)CCCCC(=O)*; Dab = NCC[C@H](N)C(=O)O
Below, each of the compounds is paired with its reported max response value.
Recorded Metric: max response

1. CC[C@@H](C)CCCCC(=O)N[C@@H](CCNCS(=O)(=O)O)C(=O)N[C@H](C(=O)N[C@@H](CCNCS(=O)(=O)O)C(=O)N[C@H]1CCNC(=O)[C@H]([C@@H](C)O)NC(=O)[C@H](CCNCS(=O)(=O)O)NC(=O)[C@H](CCNCS(=O)(=O)O)NC(=O)[C@H](CC(C)C)NC(=O)[C@@H](CC(C)C)NC(=O)[C@H](CCNCS(=O)(=O)O)NC1=O)[C@@H](C)O (X3-[Dab(CH2SO3H)]T[Dab(CH2SO3H)][Dab][Dab(CH2SO3H)][dL]L[Dab(CH2SO3H)][Dab(CH2SO3H)]T; lactam 4-C); 5.78% (inactive)
2. C[C@@H]1[C@H](O)[C@@H](C)/C=C/C=C\C=C\C=C\C=C\C=C\C=C\[C@H](O[C@@H]2O[C@H](C)[C@@H](O)[C@H](N)[C@@H]2O)C[C@@H]2O[C@](O)(C[C@@H](O)C[C@@H](O)[C@H](O)CC[C@@H](O)C[C@@H](O)CC(=O)O[C@H]1C)C[C@H](O)[C@H]2C(=O)O (stereo in doubt); 4.52% (inactive)
3. Cc1nnc(C(C)C)n1C1CC2CCC(C1)N2CC[C@H](NC(=O)C1CCC(F)(F)CC1)c1ccccc1 (some centres undefined); 3.23% (inactive)
4. COC(F)(F)C(Cl)Cl; 1.97% (inactive)

###

- Tested on: SKOV3
- Assay Procedure: Primary qHTS to identify gynecologic anti-cancer compounds using libraries of approved drugs and bioactive compounds (AID 1345084); further: on the % scale 0 is the no-effect control and ±100 the full control effect; nearly all actives have a fitted effect of over 55% in size
- Measurement Setup: Gynecologic cancer cell panel viability, ATPlite luminescence, 48 h; series mostly up to 57.5 µM
Inconclusive results are not listed. Calls of active or inactive are those of the source. Calls come from the whole dose curve; as a rule, active = well fitted cell-killing curve with a large enough effect; inconclusive = small, poorly fitted or top-dose-only effect, or effect the other way; inactive = flat fitted curve, though single readings scatter.
Recorded Metric: activity change, negative = cytotoxicity

1) CC(=O)O[C@H]1C[C@@H]2[C@]3(CC[C@]4(C)[C@@H](C5(C)CCC(C(C)(C)O)O5)[C@@H](O)C[C@@]24C)C[C@@]32CC[C@H](O[C@@H]3OC[C@@H](O)[C@H](O)[C@H]3O)C(C)(C)[C@H]12 (stereo partly drawn); inactive
2) NCCCC[C@H](NC(=O)[C@@H]1Cc2ccccc2CN1C(=O)CCC(=O)c1ccccc1)C(=O)NCC(c1ccccc1)c1ccccc1; inactive
3) O=C(/C=C/c1ccc(O)c(O)c1)OCc1ccccc1O[C@@H]1O[C@H](CO)[C@@H](O)[C@H](O)[C@H]1O; inactive
4) C[C@@H](OC(=O)/C=C/c1ccc(O)cc1)C1=C[C@]2(C=C[C@@H]3C(C(=O)O)=CO[C@@H](O[C@@H]4O[C@H](CO[C@@H]5O[C@H](CO)[C@@H](O)[C@H](O)[C@H]5O)[C@@H](O)[C@H](O)[C@H]4O)[C@@H]32)OC1=O; inactive
5) CC1(C)CC2C3=CCC4C5(C)CCC(OC6OC(C(=O)O)C(O)C(O)C6OC6OC(CO)C(O)C(O)C6OC6OC(CO)C(O)C(O)C6O)C(C)(CO)C5CCC4(C)C3(C)CCC2(C)C(OC2OCC(O)C(OC3OC(CO)C(O)C(O)C3O)C2O)C1O (stereo not drawn); 16.1% [at 6.55 µM] (inactive)
6) COC1CC(=O)CCC(C)OC(=O)CC1O (stereo not drawn); inactive
7) COc1cc(C2c3cc(O)c(OC)cc3CC(CO)C2CO)ccc1O (stereo not drawn); inactive
8) CN1CCC(c2c[nH]c3ccc(NC(=O)c4ccc(F)cc4)cc23)CC1; inactive
9) CC1=CC(=O)CC(C)(CO[C@@H]2O[C@H](CO)[C@@H](O)[C@H](O)[C@H]2O)C1(O)/C=C/C(C)=C/C(=O)O (stereo partly drawn); inactive
10) C#Cc1cnc2[nH]c(=O)n(C(CC)CC)c2n1; inactive
11) C=C1[C@H]2CC[C@]3(O)[C@@](CC[C@@H]4[C@](C)(C(=O)O)CCC[C@]43C)(C2)[C@H]1OC(=O)/C(C)=C\C; inactive
12) CC1OC(O[C@H]2[C@@H](O)C[C@@]3(C)C([C@H](O)C[C@]4(C)C3CC=C3C5CC(C)(C)CC[C@]5(C(=O)OC5OC(CO)C(O)C(O)C5OC5OCC(OC6OCC(OC7OCC(O)C(O)C7O)C(O)C6O)C(OC6OCC(O)(CO)C6O)C5O)CC[C@]34C)[C@]2(C)CO)C(O)C(O)C1O (stereo partly drawn); -0.54% [at 6.55 µM] (inactive)
13) O=c1c2cccnc2n(-c2cccc([N+](=O)[O-])c2)c(=O)n1Cc1ccncc1; inactive

These data points were gathered from PubChem BioAssay (NCATS).
